Values compiled from ChEMBL document CHEMBL3272355.

Attribute: log10(MIC)
# Tested on: Staphylococcus aureus
# RUN_DESCRIPTION: Antibacterial activity against Staphylococcus aureus Oxford assessed as growth inhibition after 18 hrs by serial dilution method
# Type: functional
ATTRIBUTE_MEASURED: log10(MIC) (log10 of the value in µg/mL)

{"columns": ["MOLECULE", "log10(MIC)"],
 "data": [
  ["N#CCC(=O)N[C@@H]1C(=O)N2C(C(=O)O)=C(Cc3ccccc3)CS[C@H]12", -0.92],
  ["CC(=O)OCC1=C(C(=O)O)N2C(=O)[C@@H](NC(=O)Cc3cccs3)[C@H]2SC1 [CEPHALOTHIN]", -0.92],
  ["O=C(Cc1ccncc1)N[C@@H]1C(=O)N2C(C(=O)O)=C(Cc3cccnc3)CS[C@H]12", -0.92],
  ["O=C(CSc1ccncc1)N[C@@H]1C(=O)N2C(C(=O)O)=C(Cc3ccccc3)CS[C@H]12", -1.30],
  ["NC(CC(=O)N[C@@H]1C(=O)N2C(C(=O)O)=C(Cc3cccnc3)CS[C@H]12)C1CC=CCC1 (mixture of isomers)", -0.30],
  ["CCSCC(=O)N[C@@H]1C(=O)N2C(C(=O)O)=C(Cc3ccccc3)CS[C@H]12", -0.92],
  ["O=C(Cc1cccs1)N[C@@H]1C(=O)N2C(C(=O)O)=C(Cc3cccnc3)CS[C@H]12", -1.30],
  ["CC(=O)N[C@@H]1C(=O)N2C(C(=O)O)=C(Cc3ccccc3)CS[C@H]12", -0.30],
  ["N[C@@H](C(=O)N[C@@H]1C(=O)N2C(C(=O)O)=C(Cc3cccnc3)CS[C@H]12)c1ccccc1", -0.60],
  ["N[C@@H](C(=O)N[C@@H]1C(=O)N2C(C(=O)O)=C(Cc3ccccc3)CS[C@H]12)c1ccc(O)cc1", -0.92],
  ["O=C(O)C1=C(Cc2ccccc2)CS[C@@H]2[C@H](NC(=O)C(F)(F)F)C(=O)N12", 0.40],
  ["CCSCC(=O)N[C@@H]1C(=O)N2C(C(=O)O)=C(Cc3cccnc3)CS[C@H]12", -1.30],
  ["O=C(Cc1ccncc1)N[C@@H]1C(=O)N2C(C(=O)O)=C(Cc3ccccc3)CS[C@H]12", -1.30],
  ["O=C(O)C1=C(Cc2cccnc2)CS[C@@H]2[C@H](NC(=O)[C@H](O)c3ccccc3)C(=O)N12", -0.60],
  ["O=C(O)C1=C(Cc2ccccc2)CS[C@@H]2[C@H](NC(=O)[C@H](O)c3ccccc3)C(=O)N12", -0.92],
  ["N[C@@H](C(=O)N[C@@H]1C(=O)N2C(C(=O)O)=C(Cc3cccnc3)CS[C@H]12)C1CC1", 0.70]
]}
